system: NHF human foreskin skin fibroblasts; test: SRB cell proliferation (cytotoxicity) assay, NHF; settings: NHF
# TGI: Concentration for total inhibition of cell growth listing for each entry below
readout label: TGI: Concentration for total inhibition of cell growth (µM)

molecule: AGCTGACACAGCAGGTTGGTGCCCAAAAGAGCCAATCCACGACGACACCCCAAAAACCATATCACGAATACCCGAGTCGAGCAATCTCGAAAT (nucleic acid, chemistry not given here) DNA: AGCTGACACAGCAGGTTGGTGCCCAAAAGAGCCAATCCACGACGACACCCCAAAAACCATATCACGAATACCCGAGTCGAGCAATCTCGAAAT
measurement: 83.697

molecule: CTGACACAGCAGGTTGGTGCCAACTAACACCATAAGAATACCCCGCTCCAAATAAGCCCACACGTAAACCCGAGTCGAGCAATCTCGAAAT (nucleic acid, chemistry not given here, DNA aptamer that recognizes human galectin-1) DNA: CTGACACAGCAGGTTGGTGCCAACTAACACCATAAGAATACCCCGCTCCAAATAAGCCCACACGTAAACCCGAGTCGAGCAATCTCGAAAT
measurement: 63.101

molecule: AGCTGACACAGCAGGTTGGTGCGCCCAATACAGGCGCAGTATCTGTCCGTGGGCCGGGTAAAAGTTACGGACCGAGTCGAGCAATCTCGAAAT (nucleic acid, chemistry not given here) DNA: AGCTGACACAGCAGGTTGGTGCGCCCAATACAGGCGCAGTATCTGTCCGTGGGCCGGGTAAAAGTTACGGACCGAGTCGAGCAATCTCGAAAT
measurement: 53.452

molecule: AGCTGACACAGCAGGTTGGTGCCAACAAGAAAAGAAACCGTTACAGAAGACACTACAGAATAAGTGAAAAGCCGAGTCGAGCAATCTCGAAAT (nucleic acid, chemistry not given here) DNA: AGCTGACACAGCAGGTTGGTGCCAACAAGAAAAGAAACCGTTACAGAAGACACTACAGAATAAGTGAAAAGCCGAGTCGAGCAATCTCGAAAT
measurement: 64.820
